Target: Cytochrome P450 3A4 (Homo sapiens)
Experiment: Cytochrome panel assay with activity outcomes
Details: recombinant CYP, pro-luciferin dealkylation, luminescence, p450-cyp3a4; series mostly up to 57.1 µM
The campaign covered roughly 16,000 compounds. About 5,100 (32%) were called active. About 25% were inconclusive and are not listed. Calls follow the shape of the dose curve; as a rule, active = well fitted curve in the direction sought with a large enough effect; inconclusive = small, poorly fitted or top-dose-only effect, or effect the other way; inactive = no such curve, though single readings can be large or run the other way. The list shows a part of the results.
Could you please pick one outcome from this set? true (active), false (inactive)

# compound, measured-target, assigned-class
rows = [
    ("CCNc1ncc2nc(-c3ccc(Cl)cc3)c(=O)n(C)c2n1", "Cytochrome P450 3A4 (Homo sapiens)", "false"),
    ("CC(C)NC(=O)c1ccc2c(=O)n(Cc3ccco3)c(=S)[nH]c2c1", "Cytochrome P450 3A4 (Homo sapiens)", "false"),
    ("COC(=O)Cn1c(=N)n(CCN2CCCCC2)c2ccccc21", "Cytochrome P450 3A4 (Homo sapiens)", "false"),
    ("CCOc1ccc(N2C(=O)/C(=C/c3cccs3)N(CC(=O)OC)C2=S)cc1", "Cytochrome P450 3A4 (Homo sapiens)", "false"),
]

Recorded test call requested for Clc1ccccc1-c1nc(NCc2cccnc2)c2ccccc2n1
true

Next entry: COC(=O)Cn1c(C(=O)N2CCCC2)cc2c1C[C@H]1CN(C(=O)c3ccccc3)[C@@](Cc3ccc(F)cc3)(C(=O)OC)[C@@H]21
true

Next entry: COc1ccc(-n2c(=O)c(CCc3ccccc3)nc3cnc(N4CCOCC4)nc32)cc1
true

Next entry: Cc1cc(C)c(Cn2cnc(-c3ccc([N+](=O)[O-])cc3)c2)c(C)c1
true

Next entry: CCNc1ncc2nc(CCc3ccccc3)c(=O)n(-c3ccc(OC)cc3)c2n1
true

* * *

Molecular target: Cytochrome P450 3A4 (Homo sapiens)
Experiment: Cytochrome panel assay with activity outcomes
Details: recombinant CYP, pro-luciferin dealkylation, luminescence, p450-cyp3a4; series mostly up to 57.1 µM
Hit rate of the full screen: of about 16,000 compounds, about 5,100 (32%) were called active. Inconclusive results (about 25%) are left out. The list shows a part of the results.
outcome-measure: AC50

Consider the following illustrative entries.
# molecule, AC50
data = [
    ("COc1ccc(NC2=NCC(=O)N2Cc2cccs2)cc1", "14.1 µM (active)"),
    ("Cc1cc(/C=N/n2cnnc2)c(C)n1-c1ccc(OCc2ccccc2F)cc1", "0.224 µM (active)"),
    ("COC(=O)C(NC(=O)c1ccc(Cl)cc1)(Nc1nc(C)cs1)C(F)(F)F (stereo not drawn)", "14.1 µM (active)"),
    ("Cc1cc(OC(=O)c2ccc(Cl)cc2)cc(=O)n1C", "inactive"),
    ("O=C(c1ccncc1)N1CCC[C@@]2(CCN(c3ccccc3)C2)C1", "3.16 µM (active)"),
]

Now for a further molecule.
Entry under review: O=C(/C=C/c1ccccc1)N/C(=C/c1ccccc1)C(=O)Nc1ccccc1O . Reported AC50?
14.1 µM (active)

* * *

Molecular target: Cytochrome P450 3A4 (Homo sapiens) (UniProt P08684)
Sequence (P08684 whole entry, looked up): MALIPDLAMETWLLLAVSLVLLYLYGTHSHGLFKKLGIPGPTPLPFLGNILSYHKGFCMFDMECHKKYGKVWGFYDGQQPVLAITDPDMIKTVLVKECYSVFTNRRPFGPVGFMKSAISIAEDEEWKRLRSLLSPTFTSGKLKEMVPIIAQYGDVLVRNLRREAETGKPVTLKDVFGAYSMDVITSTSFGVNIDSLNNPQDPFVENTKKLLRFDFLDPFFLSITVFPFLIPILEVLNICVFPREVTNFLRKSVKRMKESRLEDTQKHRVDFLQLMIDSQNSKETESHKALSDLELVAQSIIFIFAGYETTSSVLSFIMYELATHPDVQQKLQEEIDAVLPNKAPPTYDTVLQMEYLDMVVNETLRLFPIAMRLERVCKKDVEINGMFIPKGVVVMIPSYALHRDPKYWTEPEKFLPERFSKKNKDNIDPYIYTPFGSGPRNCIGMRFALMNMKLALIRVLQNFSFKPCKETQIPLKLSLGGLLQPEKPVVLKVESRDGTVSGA
Experiment: Cytochrome panel assay with activity outcomes
Settings: recombinant CYP, pro-luciferin dealkylation, luminescence, p450-cyp3a4; series mostly up to 57.1 µM
Screen size: about 16,000 compounds; about 5,100 (32%) were called active. Not shown: some 25% with an inconclusive outcome. Calls follow the shape of the dose curve; as a rule, active = well fitted curve in the direction sought with a large enough effect; inconclusive = small, poorly fitted or top-dose-only effect, or effect the other way; inactive = no such curve, though single readings can be large or run the other way. The list shows a part of the results.
Could you please pick one outcome from this set? active, inactive

# molecule, measured-target, assigned-class
records = [
    ("Cc1ccc(Nc2nnc(-c3ccc4c(c3)OCO4)o2)c(C)c1", "Cytochrome P450 3A4 (Homo sapiens) (UniProt P08684)", "active"),
    ("O=S1(=O)C=C(Oc2ccc3ccccc3c2)c2ccccc21", "Cytochrome P450 3A4 (Homo sapiens) (UniProt P08684)", "inactive"),
    ("O=C(COc1cccc2ccccc12)N1c2ccccc2CCc2ccccc21", "Cytochrome P450 3A4 (Homo sapiens) (UniProt P08684)", "active"),
    ("O=C1Nc2ccccc2Nc2ncccc21", "Cytochrome P450 3A4 (Homo sapiens) (UniProt P08684)", "inactive"),
    ("COCCNC(=O)c1cc(-c2cccc(OC)c2)on1", "Cytochrome P450 3A4 (Homo sapiens) (UniProt P08684)", "inactive"),
    ("CC(=O)Nc1nnc(S(N)(=O)=O)s1", "Cytochrome P450 3A4 (Homo sapiens) (UniProt P08684)", "inactive"),
    ("CCN(CC)C(=O)C(=O)N/N=C/c1cccc(Br)c1", "Cytochrome P450 3A4 (Homo sapiens) (UniProt P08684)", "inactive"),
    ("O=C(CCN1C(=O)c2ccccc2C1=O)NC(=S)Nc1cccc(Cl)c1", "Cytochrome P450 3A4 (Homo sapiens) (UniProt P08684)", "active"),
    ("COc1cccc(-c2cc(C(=O)Nc3cccc(O)c3)no2)c1", "Cytochrome P450 3A4 (Homo sapiens) (UniProt P08684)", "active"),
    ("O=C(Nc1ccccc1)N1CC[C@@]2(CCCN(C(=O)c3ccco3)C2)C1", "Cytochrome P450 3A4 (Homo sapiens) (UniProt P08684)", "inactive"),
]

Recorded test call requested for COc1ccc2oc(=O)c(C(=O)Oc3ccc(NC(C)=O)cc3)cc2c1
inactive
